target-system: Xanthine dehydrogenase/oxidase (Bos taurus, UniProt P80457)
Sequence (P80457 whole entry): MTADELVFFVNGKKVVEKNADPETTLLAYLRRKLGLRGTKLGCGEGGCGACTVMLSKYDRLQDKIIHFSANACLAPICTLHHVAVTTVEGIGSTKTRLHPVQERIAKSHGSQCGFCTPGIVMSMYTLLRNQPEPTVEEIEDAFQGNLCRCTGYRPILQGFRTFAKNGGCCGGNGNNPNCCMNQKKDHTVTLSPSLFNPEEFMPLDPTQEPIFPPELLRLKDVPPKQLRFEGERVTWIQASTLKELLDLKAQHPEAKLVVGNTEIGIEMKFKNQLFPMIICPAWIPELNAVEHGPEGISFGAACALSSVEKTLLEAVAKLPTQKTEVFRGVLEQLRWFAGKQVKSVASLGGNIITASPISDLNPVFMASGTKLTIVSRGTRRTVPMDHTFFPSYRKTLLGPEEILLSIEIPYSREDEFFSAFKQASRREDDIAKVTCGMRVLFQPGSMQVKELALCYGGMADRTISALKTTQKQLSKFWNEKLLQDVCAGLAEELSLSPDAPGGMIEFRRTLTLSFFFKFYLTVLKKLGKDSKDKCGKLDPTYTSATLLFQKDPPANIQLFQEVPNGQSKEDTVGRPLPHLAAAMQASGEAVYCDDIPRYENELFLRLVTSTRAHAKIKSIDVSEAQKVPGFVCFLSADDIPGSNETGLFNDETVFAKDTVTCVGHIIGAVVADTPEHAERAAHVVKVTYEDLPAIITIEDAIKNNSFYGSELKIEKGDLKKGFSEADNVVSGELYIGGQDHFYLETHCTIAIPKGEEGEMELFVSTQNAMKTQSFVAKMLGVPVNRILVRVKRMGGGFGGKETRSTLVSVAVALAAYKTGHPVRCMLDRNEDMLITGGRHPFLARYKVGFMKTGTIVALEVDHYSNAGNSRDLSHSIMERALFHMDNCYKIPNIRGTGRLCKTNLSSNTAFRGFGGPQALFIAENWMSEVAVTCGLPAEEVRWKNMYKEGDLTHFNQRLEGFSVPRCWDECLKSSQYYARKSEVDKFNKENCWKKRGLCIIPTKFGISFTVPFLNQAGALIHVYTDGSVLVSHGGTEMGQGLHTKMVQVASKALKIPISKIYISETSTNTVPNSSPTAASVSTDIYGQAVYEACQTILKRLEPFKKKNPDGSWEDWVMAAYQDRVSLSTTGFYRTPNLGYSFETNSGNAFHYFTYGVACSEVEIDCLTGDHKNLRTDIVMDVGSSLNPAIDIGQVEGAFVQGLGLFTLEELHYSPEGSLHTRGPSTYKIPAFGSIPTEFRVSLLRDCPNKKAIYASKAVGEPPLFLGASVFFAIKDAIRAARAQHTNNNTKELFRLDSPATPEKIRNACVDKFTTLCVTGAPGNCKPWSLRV
assay-method-text: Inhibition of bovine milk xanthine oxidase assessed as reduction in uric acid production using xanthine as substrate after 10 mins by HPLC analysis
observed-property: pIC50
Please treat pIC50 as minus the base-10 logarithm of the molar concentration.

Name the value of pIC50 reported for `COc1cc(-c2c(O)c(=O)oc3cc(O)cc(O)c23)ccc1O` when tested on Xanthine dehydrogenase/oxidase (Bos taurus, UniProt P80457).
5.41

All figures here come from ChEMBL document CHEMBL4330164.
